- Tested on: Geotrichum candidum
- TEST PROTOCOL: Antifungal activity against Geotrichum candidum by EUCAST method
- Assay type: functional
Param label: returns Met when MIC < 2 µg/mL, returns Not met otherwise, including exact equality.

CC[C@H](C)C[C@H](C)CCCCCCCCC(=O)N[C@H]1C[C@@H](O)[C@@H](NCCN)NC(=O)[C@@H]2[C@@H](O)CCN2C(=O)[C@H]([C@H](O)CCN)NC(=O)[C@H]([C@H](O)[C@@H](O)c2ccc(O)cc2)NC(=O)[C@@H]2C[C@@H](O)CN2C(=O)[C@H]([C@@H](C)O)NC1=O: Not met
C[C@@H]1[C@H](O)[C@@H](C)/C=C/C=C/C=C/C=C/C=C/C=C/C=C/[C@H](O[C@@H]2O[C@H](C)[C@@H](O)[C@H](N)[C@@H]2O)C[C@@H]2O[C@](O)(C[C@@H](O)C[C@@H](O)[C@H](O)CC[C@@H](O)C[C@@H](O)CC(=O)O[C@H]1C)C[C@H](O)[C@H]2C(=O)O: Met
C[C@@H](c1ncncc1F)[C@](O)(Cn1cncn1)c1ccc(F)cc1F: Met
CC[C@@H]([C@H](C)O)n1ncn(-c2ccc(N3CCN(c4ccc(OC[C@@H]5CO[C@@](Cn6cncn6)(c6ccc(F)cc6F)C5)cc4)CC3)cc2)c1=O: Met

We next turn to a different molecule, shown below.
Enquiry: Please indicate whether the reported MIC of CCC(C)n1ncn(-c2ccc(N3CCN(c4ccc(OCC5COC(Cn6cncn6)(c6ccc(Cl)cc6Cl)O5)cc4)CC3)cc2)c1=O (stereo not given) is strictly below 2 µg/mL.
Return: Met
